Target: T1, Human CD98 ECD with N-terminal His-tag (human, UniProt P08195 105-529)
T1 construct: The entry includes the linker and the polyhistidine tag; also called huCD98 ECD
T1 sequence: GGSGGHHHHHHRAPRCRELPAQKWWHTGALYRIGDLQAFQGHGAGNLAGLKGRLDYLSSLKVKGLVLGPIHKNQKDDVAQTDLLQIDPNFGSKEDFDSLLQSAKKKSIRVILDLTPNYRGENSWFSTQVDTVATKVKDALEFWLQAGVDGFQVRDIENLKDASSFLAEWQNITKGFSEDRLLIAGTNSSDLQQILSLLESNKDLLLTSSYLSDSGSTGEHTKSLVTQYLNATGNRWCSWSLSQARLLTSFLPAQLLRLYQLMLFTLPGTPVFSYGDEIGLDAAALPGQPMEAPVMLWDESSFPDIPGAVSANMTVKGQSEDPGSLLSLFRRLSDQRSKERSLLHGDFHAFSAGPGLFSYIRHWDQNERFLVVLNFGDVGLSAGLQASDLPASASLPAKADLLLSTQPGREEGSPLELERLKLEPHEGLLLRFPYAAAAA
Experiment: SPR (Biacore), recombinant CD98 ECD
Labelling field: enter t if recorded Kd is less than 1 nM. Enter f if it equals or exceeds that cut-off.

Answered examples (3):
• huAb103 (antibody, V domains shown, Framework re-engineered humanized clone (parent huAb3v2), expressed as full-length IgG; also called haAb103) VH: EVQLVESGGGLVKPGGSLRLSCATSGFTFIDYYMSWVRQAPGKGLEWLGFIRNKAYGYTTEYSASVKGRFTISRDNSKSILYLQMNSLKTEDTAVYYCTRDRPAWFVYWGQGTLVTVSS VL: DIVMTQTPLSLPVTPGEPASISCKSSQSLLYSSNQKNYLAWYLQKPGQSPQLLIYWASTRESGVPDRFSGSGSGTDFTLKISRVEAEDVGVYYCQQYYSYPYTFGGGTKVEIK = f
• huAb109 (antibody, V domains shown, Framework re-engineered humanized clone (parent huAb15v6), expressed as full-length IgG) VH: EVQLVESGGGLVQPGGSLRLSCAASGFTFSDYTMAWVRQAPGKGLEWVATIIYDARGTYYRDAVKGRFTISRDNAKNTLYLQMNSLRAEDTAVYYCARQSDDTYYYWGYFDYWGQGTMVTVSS VL: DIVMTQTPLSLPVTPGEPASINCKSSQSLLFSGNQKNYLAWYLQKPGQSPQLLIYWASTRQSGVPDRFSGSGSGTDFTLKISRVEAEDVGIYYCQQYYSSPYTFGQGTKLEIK = f
• huAb108 (antibody, human IgG1, kappa, L234A L235A, V domains shown, Framework re-engineered humanized clone (parent huAb15v2); also called CL-huAb108) VH: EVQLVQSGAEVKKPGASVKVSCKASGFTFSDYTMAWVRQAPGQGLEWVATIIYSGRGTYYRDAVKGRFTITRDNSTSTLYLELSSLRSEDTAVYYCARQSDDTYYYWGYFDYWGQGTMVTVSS VL: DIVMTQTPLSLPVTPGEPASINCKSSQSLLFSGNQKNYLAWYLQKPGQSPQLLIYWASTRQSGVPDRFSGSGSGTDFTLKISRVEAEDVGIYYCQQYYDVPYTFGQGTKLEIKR = t

[Q] Here's an entry: huAb107 (antibody, V domains shown, Framework re-engineered humanized clone (parent huAb15v2), expressed as full-length IgG) VH: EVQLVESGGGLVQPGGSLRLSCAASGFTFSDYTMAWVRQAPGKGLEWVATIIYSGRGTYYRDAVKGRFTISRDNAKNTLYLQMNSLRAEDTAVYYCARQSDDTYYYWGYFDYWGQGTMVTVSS VL: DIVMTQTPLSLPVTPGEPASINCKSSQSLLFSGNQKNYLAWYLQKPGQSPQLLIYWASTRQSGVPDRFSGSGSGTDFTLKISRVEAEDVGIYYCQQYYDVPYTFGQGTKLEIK . Is its Kd below 1 nM?
[A] t

[Q] Hi there! Is Kd for huAb101 (antibody, V domains shown, Framework re-engineered humanized clone (parent huAb3v1), expressed as full-length IgG) VH: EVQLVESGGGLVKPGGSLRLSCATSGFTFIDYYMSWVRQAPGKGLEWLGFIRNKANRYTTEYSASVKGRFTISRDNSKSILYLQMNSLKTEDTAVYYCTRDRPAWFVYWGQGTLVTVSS VL: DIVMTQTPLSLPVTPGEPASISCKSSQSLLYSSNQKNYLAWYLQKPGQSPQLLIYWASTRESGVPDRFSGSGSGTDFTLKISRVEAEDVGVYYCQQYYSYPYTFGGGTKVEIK below 1 nM, do you know?
[A] f
